These measurements were taken from paper PMC4336329.

# Subject of test: human ether-à-go-go-related gene (hERG) potassium channel (human, UniProt Q12809)
# Sequence (Q12809 whole entry, looked up): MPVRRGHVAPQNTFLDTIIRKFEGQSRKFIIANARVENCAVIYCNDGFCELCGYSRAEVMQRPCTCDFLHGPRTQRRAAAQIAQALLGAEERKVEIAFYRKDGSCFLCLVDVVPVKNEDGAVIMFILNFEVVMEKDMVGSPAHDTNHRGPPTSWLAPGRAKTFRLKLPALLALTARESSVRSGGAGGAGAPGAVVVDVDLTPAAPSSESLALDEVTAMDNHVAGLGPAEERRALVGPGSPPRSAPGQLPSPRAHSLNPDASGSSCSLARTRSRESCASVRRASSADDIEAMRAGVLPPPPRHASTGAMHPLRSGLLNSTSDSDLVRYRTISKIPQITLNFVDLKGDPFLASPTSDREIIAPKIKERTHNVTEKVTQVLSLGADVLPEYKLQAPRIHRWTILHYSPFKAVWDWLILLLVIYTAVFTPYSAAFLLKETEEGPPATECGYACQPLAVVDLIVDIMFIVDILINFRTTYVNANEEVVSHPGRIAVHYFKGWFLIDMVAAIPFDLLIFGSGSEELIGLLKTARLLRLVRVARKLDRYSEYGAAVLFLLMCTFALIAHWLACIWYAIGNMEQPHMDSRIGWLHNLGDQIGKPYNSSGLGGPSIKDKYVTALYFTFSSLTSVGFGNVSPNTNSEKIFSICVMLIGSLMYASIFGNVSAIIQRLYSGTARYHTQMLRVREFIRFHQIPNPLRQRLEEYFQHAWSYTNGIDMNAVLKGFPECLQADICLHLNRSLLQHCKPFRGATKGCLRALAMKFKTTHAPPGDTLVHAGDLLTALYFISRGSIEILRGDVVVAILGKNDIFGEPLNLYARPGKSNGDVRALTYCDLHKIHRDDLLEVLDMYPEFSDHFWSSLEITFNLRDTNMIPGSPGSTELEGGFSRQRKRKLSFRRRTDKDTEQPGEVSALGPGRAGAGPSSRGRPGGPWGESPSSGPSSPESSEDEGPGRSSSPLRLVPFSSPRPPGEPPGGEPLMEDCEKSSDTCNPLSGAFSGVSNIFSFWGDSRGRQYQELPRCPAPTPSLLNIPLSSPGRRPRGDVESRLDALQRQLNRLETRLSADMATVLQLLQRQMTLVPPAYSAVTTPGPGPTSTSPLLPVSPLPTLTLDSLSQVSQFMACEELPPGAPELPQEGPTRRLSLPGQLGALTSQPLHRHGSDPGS
# Experimental details: primary screen, population patch clamp on CHO cells stably expressing hERG; higher = less effect of the substance
# Text: Briefly, Chinese hamster ovary (CHO) cells stably expressing the hERG channel were dislodged from tissue culture flasks and dispensed into PPC plates. […] Small molecule effects on hERG current density were quantified by […].
About 2,200 (0.71%) of roughly 310,000 compounds showed an effect of 50% or more. The effect is printed as a negative number. What follows is part of a selection rich in strong results, with near analogues and random picks from the rest.
# hERG current change (%, negative = inhibition) at 1uM per entry
Give the value, in units of %, as a plain number.

[[record]]
compound = "C=CCOc1ccccc1CN1CCC(Oc2cc(C(=O)NC3CC3)ccc2OC)CC1"
subject_of_test = "human ether-à-go-go-related gene (hERG) potassium channel (human, UniProt Q12809)"
test_result = -66.6

[[record]]
compound = "COc1ccccc1CCNC(=O)c1ccc(OC)c(OC2CCN(C(C)C)CC2)c1"
subject_of_test = "human ether-à-go-go-related gene (hERG) potassium channel (human, UniProt Q12809)"
test_result = -4.22


What the record says about CCNC(=O)N(CCOC)CC1CCCN(C2Cc3ccccc3C2)C1 (stereo not drawn) : hERG current change (%, negative = inhibition) at 1uM is 11.7

In plain terms, Cn1cc(/C=N/NC(=O)c2ccc(C#N)cc2F)c2ccccc21 has a documented hERG current change (%, negative = inhibition) at 1uM of 12.6

Entry COCCN(CC1CCCN(C2Cc3ccccc3C2)C1)C(=O)CCSC (stereo not drawn) — recorded hERG current change (%, negative = inhibition) at 1uM = -4.27

COc1ccc(C(=O)NCCc2ccccc2F)cc1OC1CCN(C(C)=O)CC1 has a reported hERG current change (%, negative = inhibition) at 1uM of 12.5

Query O=C(NCCCN1CCOCC1)C1(c2ccccc2)CCOCC1 yields hERG current change (%, negative = inhibition) at 1uM of 19.2

hERG current change (%, negative = inhibition) at 1uM reported for this compound COc1ccc(C(=O)NC2CC2)cc1OC1CCN(Cc2ccccc2F)CC1 : -64.5

Noted for CCn1ncc(CN2CCC(Oc3cc(C(=O)NC4CC4)ccc3OC)CC2)c1C : its hERG current change (%, negative = inhibition) at 1uM reads 1.05

Item: N=c1c(C(=O)NC2CCCC2)cc2c(=O)n3ccccc3nc2n1CCCN1CCOCC1 | hERG current change (%, negative = inhibition) at 1uM: -63.7

COc1ccc(C(=O)N(C)C2CCCN(Cc3ccccc3F)C2)cc1OC (stereo not drawn) has a reported hERG current change (%, negative = inhibition) at 1uM of 10.2

In plain terms, CCCc1ccc(-c2c(C)sc(N)c2C#N)cc1 has a documented hERG current change (%, negative = inhibition) at 1uM of 16.9

Form field hERG current change (%, negative = inhibition) at 1uM, entry C=CCOc1ccccc1CN1CCC(Oc2ccc(C(=O)N3CCCC3)cc2)CC1 : -19.5

Reported hERG current change (%, negative = inhibition) at 1uM for O=C(O)COc1ccccc1 was 14.1

Lab book: hERG current change (%, negative = inhibition) at 1uM of O=C(CCc1nnc2ccc(N3CCCC3)nn12)Nc1cc(F)ccc1F noted as -9.58

In plain terms, COc1ccc(C(=O)NC2CC2)cc1OC1CCN(Cc2cnn(C)c2C)CC1 has a documented hERG current change (%, negative = inhibition) at 1uM of -2

According to the records, this compound COCCN(CC1CCCN(C2Cc3ccccc3C2)C1)C(=O)c1ccc(C(C)=O)cc1 (stereo not drawn) displays hERG current change (%, negative = inhibition) at 1uM of -51.9

Value of hERG current change (%, negative = inhibition) at 1uM reported for the compound COc1cccc(NC(=O)c2cc(-c3cccnc3)nc3c(Cl)cccc23)c1 is 7.59

Looking up C=CCOc1ccccc1CN1CCC(Oc2ccc(C(=O)N3CCCCC3)cc2)CC1 , I found its hERG current change (%, negative = inhibition) at 1uM recorded as -3.91

Entry CC(NC(=S)NCCCN1CCOCC1)C12CC3CC(CC(C3)C1)C2 (stereo not drawn) — recorded hERG current change (%, negative = inhibition) at 1uM = 12.9

# compound COc1ccc(C(=O)NC2CC2)cc1OC1CCN(Cc2cc(C)c(C)cc2C)CC1 ; its hERG current change (%, negative = inhibition) at 1uM = -74.1
